system: Cyclin-dependent kinase 4 (Homo sapiens)
test summary: Inhibition of CDK4 (unknown origin)
property: pIC50
Answers are plain numbers, as −log10 of the molar value.

// fetch pIC50 given entry `CN1CCN(c2ccc(Nc3ncc4cc(C#N)c(=O)n(C5CCCC5)c4n3)cc2)CC1`
8.41

* * *

system: Insulin receptor (Homo sapiens)
Sequence (P06213 28-758 limits assumed): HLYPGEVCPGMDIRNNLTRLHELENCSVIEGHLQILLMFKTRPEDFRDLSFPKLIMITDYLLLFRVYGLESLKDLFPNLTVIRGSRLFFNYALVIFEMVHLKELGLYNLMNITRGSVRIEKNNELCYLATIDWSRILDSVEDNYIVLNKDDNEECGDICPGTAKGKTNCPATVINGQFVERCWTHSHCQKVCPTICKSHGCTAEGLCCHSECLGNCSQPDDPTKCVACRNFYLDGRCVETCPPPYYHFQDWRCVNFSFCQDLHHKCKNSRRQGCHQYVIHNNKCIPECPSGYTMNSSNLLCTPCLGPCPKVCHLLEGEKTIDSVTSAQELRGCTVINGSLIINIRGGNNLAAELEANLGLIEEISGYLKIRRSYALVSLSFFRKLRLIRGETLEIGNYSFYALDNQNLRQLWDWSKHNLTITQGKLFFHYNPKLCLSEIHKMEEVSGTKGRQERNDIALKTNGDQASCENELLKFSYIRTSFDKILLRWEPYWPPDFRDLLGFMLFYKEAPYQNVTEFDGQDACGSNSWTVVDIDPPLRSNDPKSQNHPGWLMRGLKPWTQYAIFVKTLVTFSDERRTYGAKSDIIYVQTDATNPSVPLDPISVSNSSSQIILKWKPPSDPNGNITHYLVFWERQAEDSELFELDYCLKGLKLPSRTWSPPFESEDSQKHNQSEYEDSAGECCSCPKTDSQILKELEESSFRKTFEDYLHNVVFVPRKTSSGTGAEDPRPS
Sequence (P06213 763-1382 limits assumed): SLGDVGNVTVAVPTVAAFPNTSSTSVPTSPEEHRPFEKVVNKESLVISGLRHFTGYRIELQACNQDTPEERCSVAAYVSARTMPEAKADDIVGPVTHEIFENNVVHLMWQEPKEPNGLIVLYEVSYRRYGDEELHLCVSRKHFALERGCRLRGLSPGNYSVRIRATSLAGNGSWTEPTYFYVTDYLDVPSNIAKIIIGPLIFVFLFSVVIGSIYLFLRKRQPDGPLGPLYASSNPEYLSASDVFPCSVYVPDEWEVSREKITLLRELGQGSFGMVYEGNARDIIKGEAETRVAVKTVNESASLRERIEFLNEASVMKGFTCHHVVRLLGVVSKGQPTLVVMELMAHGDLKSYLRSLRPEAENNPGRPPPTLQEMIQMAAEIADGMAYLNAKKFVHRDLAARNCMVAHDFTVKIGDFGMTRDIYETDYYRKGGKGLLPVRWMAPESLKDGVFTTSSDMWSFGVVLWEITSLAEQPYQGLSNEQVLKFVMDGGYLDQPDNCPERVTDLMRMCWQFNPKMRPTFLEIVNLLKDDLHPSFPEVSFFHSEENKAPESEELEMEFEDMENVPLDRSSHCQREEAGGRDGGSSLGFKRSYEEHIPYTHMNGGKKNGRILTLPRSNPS
property: Kd (nM)
Answers are plain numbers, in nM.

// fetch Kd given entry COCCN1CCN(CCn2ccc(Nc3ncc4c(n3)C(C)Cc3nn(C)c(-c5ccccc5)c3-4)n2)CC1 (stereo unspecified)
12

* * *

system: Aurora kinase B (Homo sapiens)
Sequence (Q96GD4 whole entry): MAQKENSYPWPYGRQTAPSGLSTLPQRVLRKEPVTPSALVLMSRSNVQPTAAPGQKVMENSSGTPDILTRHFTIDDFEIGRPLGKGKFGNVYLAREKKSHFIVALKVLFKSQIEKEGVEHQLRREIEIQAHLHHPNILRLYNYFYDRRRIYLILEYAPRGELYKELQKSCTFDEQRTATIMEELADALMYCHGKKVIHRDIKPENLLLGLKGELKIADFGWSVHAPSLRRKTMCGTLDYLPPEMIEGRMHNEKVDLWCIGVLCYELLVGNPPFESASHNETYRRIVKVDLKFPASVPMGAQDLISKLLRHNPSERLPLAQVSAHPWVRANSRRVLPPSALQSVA
test summary: Inhibition of Aurora B (unknown origin)
property: IC50
Kindly write the number and append the unit.

// fetch IC50 given entry `CN1C(=O)c2cc3ccccc3cc2N(C)c2nc(Nc3cnn(C4CCNCC4)c3)ncc21`
54 nM
